I'd be grateful if you could share measured cellular association value (legend says percent; value exceeds 100, unit unclear) for these entries.
target: T1, HER2 (human epidermal growth factor receptor 2) on cells (human, UniProt P04626 23-1255); experiment: flow cytometry (Cy5), MDA-MB-231/HER2 cells, 0.5 h
T1 construct: whole, on cells; One molecule for HER2 on all HER2-positive human cell lines; also called ERBB2; HER2 WT

Given the binder BHA[Lys]8[((α-NH-COPEG24NH-COPEG4(PhMeTz) TCO-PEG3NH-COPEG24NH-Glu-DBCO/N3-Nanobody)1(α-Lys(α-NHCy5)(ε-NHDFO))1(α-NH2)6)(ε-NH-COPEG1000)8], G3, Compound 89 (VHH, unnatural amino acid (#; p-azido-phenylalanine) clicked to DBCO-Glu-NHPEG24CO-NHPEG3-TCO and through it to the tetrazine G3 BHA-lysine dendrimer carrying Cy5, DFO and PEG1000, Single-nanobody G3 conjugate; also called BHA-G3-PEG1000 + NB) VHH: EVQLVESGGSLVQPGGSLRLSCAASGFTFDDYAMSWVRQVPGKGLEWVSSINWSGTHTDYADSVKGRFTISRNNANNTLYLQMNSLKSEDTAVYYCAKNWRDAGTTWFEKSGSAGQGTQVTVSS , what is its reported cellular association value (legend says percent; value exceeds 100, unit unclear)?
218

Given the binder BHA[Lys]16[((α-NH-COPEG24NH-COPEG4(PhMeTz) TCO-PEG3NH-COPEG24NH-Glu-DBCO/N3-Nanobody)1(α-Lys(α-NHCy5)(ε-NHDFO))1(α-NH2)14(ε-NH-COPEG1000)16], G4, Compound 90 (VHH, unnatural amino acid (#; p-azido-phenylalanine) clicked to DBCO-Glu-NHPEG24CO-NHPEG3-TCO and through it to the tetrazine G4 BHA-lysine dendrimer carrying Cy5, DFO and PEG1000, Single-nanobody G4 conjugate; also called single 2D3-dendrimer conjugate; MFI Single) VHH: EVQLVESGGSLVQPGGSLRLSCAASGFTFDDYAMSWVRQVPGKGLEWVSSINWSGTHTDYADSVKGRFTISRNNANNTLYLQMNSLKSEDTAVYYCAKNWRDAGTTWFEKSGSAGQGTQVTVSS , what is its reported cellular association value (legend says percent; value exceeds 100, unit unclear)?
157

Given the binder BHA[Lys]4[((α-NH-COPEG24NH-COPEG4(PhMeTz) TCO-PEG3NH-COPEG24NH-Glu-DBCO N3-Nanobody)1(α-Lys(α-NHCy5)(ε-NHDFO))1(α-NH2)2)(ε-NH-COPEG1000)4, G2, Compound 86 (VHH, unnatural amino acid (#; p-azido-phenylalanine) clicked to DBCO-Glu-NHPEG24CO-NHPEG3-TCO and through it to the tetrazine G2 BHA-lysine dendrimer carrying Cy5, DFO and PEG1000, Single-nanobody G2 conjugate; also called BHA-G2-PEG1000 + NB) VHH: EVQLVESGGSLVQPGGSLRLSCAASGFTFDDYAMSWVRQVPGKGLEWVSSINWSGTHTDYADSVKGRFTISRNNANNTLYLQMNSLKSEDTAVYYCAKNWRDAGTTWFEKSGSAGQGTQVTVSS , what is its reported cellular association value (legend says percent; value exceeds 100, unit unclear)?
190

Given the binder BHA[Lys]32[((α-NH-COPEG24NH-COPEG4(PhMeTz) TCO-PEG3NH-COPEG24NH-Glu-DBCO/N3-Nanobody)1(α-Lys(α-NHCy5)(ε-NHDFO))1(α-NH2)30(ε-NH-COPEG1100)32], G5, Compound 92 (VHH, unnatural amino acid (#; p-azido-phenylalanine) clicked to DBCO-Glu-NHPEG24CO-NHPEG3-TCO and through it to the tetrazine G5 BHA-lysine dendrimer carrying Cy5, DFO and PEG, Single-nanobody G5 conjugate; also called BHA-G5-PEG1000 + NB) VHH: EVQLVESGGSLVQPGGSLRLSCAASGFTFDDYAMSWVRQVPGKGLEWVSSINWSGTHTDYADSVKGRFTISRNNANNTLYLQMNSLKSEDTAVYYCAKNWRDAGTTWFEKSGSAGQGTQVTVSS , what is its reported cellular association value (legend says percent; value exceeds 100, unit unclear)?
165
